Entry source: ChEMBL document CHEMBL3632465

Below, each entry is listed alongside its reported log10 IC50.
# system_tested: Interleukin-1 receptor-associated kinase 4 (Homo sapiens)
# Sequence (Q9NWZ3 whole entry): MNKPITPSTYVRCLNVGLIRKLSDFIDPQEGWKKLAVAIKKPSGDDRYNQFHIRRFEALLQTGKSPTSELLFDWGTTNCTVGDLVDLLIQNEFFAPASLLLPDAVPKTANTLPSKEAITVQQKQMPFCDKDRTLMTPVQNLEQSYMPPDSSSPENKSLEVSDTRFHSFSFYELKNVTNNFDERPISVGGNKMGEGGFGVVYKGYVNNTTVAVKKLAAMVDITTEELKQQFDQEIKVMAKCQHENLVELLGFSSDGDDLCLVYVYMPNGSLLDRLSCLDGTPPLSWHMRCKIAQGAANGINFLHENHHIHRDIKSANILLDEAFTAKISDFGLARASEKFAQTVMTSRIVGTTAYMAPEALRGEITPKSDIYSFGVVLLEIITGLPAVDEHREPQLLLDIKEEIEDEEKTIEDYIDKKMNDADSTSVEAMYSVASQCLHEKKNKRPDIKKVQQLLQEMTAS
# assay: Inhibition of IRAK4 in human PBMC
Could you please treat all values as log10 of IC50 in µM?

Take a look at these entries with their results.
Field log10 IC50 (entry "Cn1cc(NC(=O)c2ccc3ccc(N[C@@H]4CCCNC4)nn23)c(C(F)(F)F)n1" ) reads -1.77

Entry "Cn1cc(NC(=O)c2csc3ncc(N[C@@H]4CCCC[C@@H]4N)nc23)c(Cl)n1" — recorded log10 IC50 = -2.15

response.value for "Cn1cc(NC(=O)c2ccc3cnc(N[C@@H]4CC(F)(F)CC[C@@H]4N)nn23)c(C(F)F)n1" (field: log10 IC50) = -0.85

Further cases:
Record "Cn1cc(NC(=O)c2cnn3ccc(N[C@@H]4CC(F)(F)CC[C@@H]4N)nc23)c(C(F)F)n1" , field log10 IC50: -0.55

Input "Cn1cc(NC(=O)c2cnn3ccc(N[C@@H]4CCCC[C@@H]4N)nc23)c(Cl)n1" . Output log10 IC50: -1.92

* * *

# assay: Half life in rat hepatocytes
# Assay type: ADME, cell-based, Hepatocyte
Label key: 1 means half-life under 20 min; 0 means half-life of 20 min or more.

The examples below pair each entry with its known result.
Criterion: half-life strictly below 20 min. Is it met by "Cn1cc(NC(=O)c2ccc3cnc(N[C@@H]4CCCC[C@@H]4N)nn23)c(C(F)(F)F)n1" ? 1

Find out if reported half-life for "Cn1cc(NC(=O)c2csc3ncc(N[C@@H]4CCCNC4)nc23)c(C(F)(F)F)n1" is less than 20 min 0

Hello, I'm reviewing records and need to know if half-life of "Cn1cc(NC(=O)c2csc3ncc(N[C@@H]4CCCC[C@@H]4N)nc23)c(C(F)(F)F)n1" is below 20 min. Could you check? 0

Next:
Lab note: half-life threshold 20 min. Does this compound come in strictly under it? "Cn1cc(NC(=O)c2ccc3cnc(N[C@@H]4CCCC[C@@H]4N)nn23)c(C#N)n1" 1

* * *

# maps each entry to its Papp
# assay: Apparent permeability of the compound in MDCK cells
# Format: ADME, cell-based, Canis lupus familiaris
# assay_setup: dog
Give the number; ×10⁻⁶ cm/s is assumed, so skip it.

Examples with their reported Papp follow.
Consider "Cn1cc(NC(=O)c2ccc3cnc(N[C@@H]4CCCCNC4)nn23)c(C(F)F)n1" . Its measured Papp is 30

Form: molecule = "Cn1cc(NC(=O)c2csc3ncc(N[C@@H]4CCCNC4)nc23)c(C(F)F)n1" ; Papp = 25

Just so you know, measured Papp for "Cn1cc(NC(=O)c2cnn3ccc(N[C@@H]4CCCC[C@@H]4N)nc23)c(Cl)n1" came out at 15

Entry under test: "Cn1cc(NC(=O)c2csc3ncc(N[C@@H]4CCCC[C@@H]4N)nc23)c(Cl)n1" . Its Papp was 23

For record "Cn1cc(NC(=O)c2csc3ncc(N[C@@H]4CCCC[C@@H]4N)nc23)c(C(F)F)n1" the listed Papp is 27

Next:
Record "Cn1cc(NC(=O)c2cnn3ccc(N[C@@H]4CC(F)(F)CC[C@@H]4N)nc23)c(C(F)F)n1" . Reported Papp: 13

* * *

Overview of recorded half-life for various molecules
# assay: Half life in rat liver microsomes
# Assay type: ADME
Entry rule: numbers only, all in min.

Examples from the recorded data:
In plain terms, "Cn1cc(NC(=O)c2ccc3cnc(N[C@@H]4CCCC[C@@H]4N)nn23)c(C#N)n1" has a documented half-life of 16

half-life for "Cn1cc(NC(=O)c2ccc3ccc(N[C@@H]4CCCC[C@@H]4N)nn23)c(C#N)n1" is 16

Kindly note the recorded half-life for "Cn1cc(NC(=O)c2csc3ncc(N[C@@H]4CCCC[C@@H]4N)nc23)c(C#N)n1" , which is 24

Short answer for "Cn1cc(NC(=O)c2ccc3cnc(N[C@@H]4CCCNC4)nn23)c(C(F)(F)F)n1" : half-life was 3

For record "Cn1cc(NC(=O)c2ccc3cnc(N[C@@H]4CCCC[C@@H]4N)nn23)c(C(F)(F)F)n1" the listed half-life is 17

More entries:
For record "Cn1cc(NC(=O)c2csc3ncc(N[C@@H]4CCCC[C@@H]4N)nc23)c(C(F)F)n1" the listed half-life is 14

// half-life value for "Cn1cc(NC(=O)c2ccc3ccc(N[C@@H]4CCCC[C@@H]4N)nn23)c(C(F)F)n1" : 10

half-life reading for "Cn1cc(NC(=O)c2ccc3cnc(N[C@@H]4CCCC[C@@H]4N)nn23)c(C(F)F)n1" : 12

* * *

Let's look at some compounds and their measured pIC50.
# assay: Inhibition of IRAK4 in rat whole blood
# Format: tissue-based
# log scale: pIC50 equals minus log10 of the concentration in mol/L

For orientation, consider the following solved cases.
Briefly, pIC50 measured for "Cn1cc(NC(=O)c2ccc3ccc(N[C@@H]4CCCC[C@@H]4N)nn23)c(C(F)(F)F)n1" : 6.70

Noted for "Cn1cc(NC(=O)c2ccc3cnc(N[C@@H]4CCCC[C@@H]4N)nn23)c(C(F)(F)F)n1" : its pIC50 reads 7.21

Now, please, on to the next compound.
Per the record, "Cn1cc(NC(=O)c2csc3ncc(N[C@@H]4CCCC[C@@H]4N)nc23)c(C(F)(F)F)n1" has pIC50 of 6.36

* * *

In this section, each of the molecules is paired with its reported pIC50.
# system_tested: UniProt Q9NWZ3
# assay: Inhibition of IRAK4 (unknown origin)
pIC50: −log10 of the molar value.

The molecule listed as "Cn1cc(NC(=O)c2cnn3ccc(N[C@@H]4CCCC[C@@H]4N)nc23)c(Cl)n1" shows pIC50 equal to > 9.30

Sample "Cn1cc(NC(=O)c2cnn3ccc(N[C@@H]4CC(F)(F)CC[C@@H]4N)nc23)c(C(F)F)n1" ; pIC50 observed: 7.42

Next:
For record "Cn1cc(NC(=O)c2cnn3ccc(N[C@@H]4CCCNC4)nc23)c(C(F)F)n1" the listed pIC50 is > 9.30

For reference, reported pIC50 for "Cn1cc(NC(=O)c2cnn3ccc(N[C@@H]4CCCNC4)nc23)c(C(F)(F)F)n1" stands at > 9.30

* * *

# assay: Apparent permeability of the compound in MDCK cells
# Format: ADME, cell-based, Canis lupus familiaris
# assay_setup: dog
Lab note: anything with Papp at or over 30 ×10⁻⁶ cm/s counts as Met; the rest go in Not met.

Entry "Cn1cc(NC(=O)c2ccc3cnc(N[C@@H]4CCCC[C@@H]4N)nn23)c(Cl)n1" : is its Papp no less than 30 ×10⁻⁶ cm/s? Not met

API: above_or_equal(metric=Papp, cutoff=30 ×10⁻⁶ cm/s) for item "Cn1cc(NC(=O)c2ccc3ccc(N[C@@H]4CCCC[C@@H]4N)nn23)c(C(F)F)n1" Not met

I'd appreciate it if you could say whether "Cn1cc(NC(=O)c2cnn3ccc(N[C@@H]4CCCNC4)nc23)c(C(F)F)n1" has Papp at least equal to 30 ×10⁻⁶ cm/s. Not met

Next:
For this compound, is measured Papp 30 ×10⁻⁶ cm/s or higher? "Cn1cc(NC(=O)c2csc3ncc(N[C@@H]4CCCC[C@@H]4N)nc23)c(C#N)n1" Not met

Determine whether measured Papp meets or exceeds 30 ×10⁻⁶ cm/s for "Cn1cc(NC(=O)c2cnn3ccc(N[C@@H]4CCCCNC4)nc23)c(C(F)F)n1" Not met

Can "Cn1cc(NC(=O)c2ccc3ccc(N[C@@H]4CCCC[C@@H]4N)nn23)c(C#N)n1" be said to have Papp at or above 30 ×10⁻⁶ cm/s? Not met

Say whether "Cn1cc(NC(=O)c2ccc3cnc(N[C@@H]4CCCC[C@@H]4N)nn23)c(C(F)(F)F)n1" shows Papp of 30 ×10⁻⁶ cm/s or more. Not met

hey, is Papp for this one >= 30 ×10⁻⁶ cm/s? "Cn1cc(NC(=O)c2ccc3cnc(N[C@@H]4CCCC[C@@H]4N)nn23)c(C#N)n1" Met

Could you verify whether the entry "Cn1cc(NC(=O)c2ccc3ccc(N[C@@H]4CCCNC4)nn23)c(C(F)(F)F)n1" shows Papp of no less than 30 ×10⁻⁶ cm/s? Met
